Just for reference, the supplement of paper PMC10724198 is where these values come from.

Tested on: Saccharomyces cerevisiae
METHOD: protein stability index of tFT-peptide fusion (C-terminal peptide) (PSI (0-1 scale)); higher = more stable (slower turnover)
SETUP_CONDITIONS: genetic background: wild type; temperature: 30 C
In this section, each of the sequences is paired with its reported protein stability index.
OBSERVED_PROPERTY: protein stability index

SEQUENCE_DATA | REPORTED_RESULT
PPPPRPSPPPPS | 0.694
PYLLGPIPGIPR | 0.666
AEGPWMEDGDMG | 0.702
SLGGGGGLAWWL | 0.795
SPPLRPLSDLTP | 0.692
GRRVAWGAQGLG | 0.602
LPPPPSPESPLS | 0.722
LLVCLGYFLFLG | 0.403
APACRLTLVSDF | 0.752
SRYGKVIRKKHE | 0.756

---

Tested on: Saccharomyces cerevisiae
METHOD: protein stability index of tFT-peptide fusion (C-terminal peptide) (PSI (0-1 scale)); higher = more stable (slower turnover)
SETUP_CONDITIONS: genetic background: wild type; temperature: 30 C
Assign true whenever protein stability index does not fall below 0.7; assign false whenever it does.

SEQUENCE_DATA | CLASS_LABEL
GTWGGGGWSCES | true
SFPLSPAFPSFL | true
RVDFRLPVYLGI | false
GTLLRINLMTIQ | false
FFSWFGCSCYAR | true
YMCPSFCLPLFP | true
KKKKKSKKKTKT | false
AGGVCHVSSLLA | false
GWGGGGGAWKGV | true
GPSPPSPSPPPL | false
SLSDKRATKGED | false
ALRLLRFPSPPP | false
FPPCSFLARPFL | false
GGVLGRRLLGGR | false
RFSYFPALFFPS | false
HNGRAARAYLCW | false
YFLFLRLVFLFF | false
PSRSFLPTHCSL | false
PPPPPPPPPPPL | false
RKINKQKRTKEE | false
VAMAGQQLYVTI | false
LSRSSQPLPPPH | true
LFGFLGVAACVV | false
FLAWSVGILCRV | false
GRTPGNALKRND | false

---

System: Saccharomyces cerevisiae
METHOD: protein stability index of tFT-peptide fusion in deletion strain of DAS1 (PSI (0-1 scale)); higher = more stable (slower turnover)
OBSERVED_PROPERTY: protein stability index

SEQUENCE_DATA | STUDY_TARGET | REPORTED_RESULT
CTSCCYKFRTNN | Saccharomyces cerevisiae | 0.661
LVVYLSCVACINA | Saccharomyces cerevisiae | 0.0343
RLIWPLPVQFLN | Saccharomyces cerevisiae | 0.57
VRGAVGGWRLVGM | Saccharomyces cerevisiae | 0.685
KKHKKGQKQMIN | Saccharomyces cerevisiae | 0.591
RLIPPLPVQFLN | Saccharomyces cerevisiae | 0.576
ADWRVGLWRGAS | Saccharomyces cerevisiae | 0.729
GLIQPLPVQFLN | Saccharomyces cerevisiae | 0.62
VRGAVGGWRLVGS | Saccharomyces cerevisiae | 0.67
FSMRWTFRYNVN | Saccharomyces cerevisiae | 0.568
CWSCGYKFRTNN | Saccharomyces cerevisiae | 0.714
CTSCGYKFRTRN | Saccharomyces cerevisiae | 0.683
VRGAVGIWRLVG | Saccharomyces cerevisiae | 0.681
ARLRVGLWRGAS | Saccharomyces cerevisiae | 0.69
RLIQPLPVQFLND | Saccharomyces cerevisiae | 0.671
KKHKKGQKQKAN | Saccharomyces cerevisiae | 0.709
KLHKKGQKQKIN | Saccharomyces cerevisiae | 0.612
LKILRQKDNHQN | Saccharomyces cerevisiae | 0.666
LRWRVGLWRGAS | Saccharomyces cerevisiae | 0.682
LKILRQIMNHQN | Saccharomyces cerevisiae | 0.693
QDKRNHLIKLLN | Saccharomyces cerevisiae | 0.592
VRGAVTGWRLVG | Saccharomyces cerevisiae | 0.684
LKILRQKMNHSN | Saccharomyces cerevisiae | 0.674
LKILRQPMNHQN | Saccharomyces cerevisiae | 0.68
PDVRNHLIKLLN | Saccharomyces cerevisiae | 0.613
RLIQPLLVQFLN | Saccharomyces cerevisiae | 0.575
LSMRWTFRYWVN | Saccharomyces cerevisiae | 0.531
SSLAASFWRVVG | Saccharomyces cerevisiae | 0.692
KKHKKGQKQEIN | Saccharomyces cerevisiae | 0.589
FSMRWTFRIWVN | Saccharomyces cerevisiae | 0.288
LKILRQKMYHQN | Saccharomyces cerevisiae | 0.658
NVVYLSCVACIN | Saccharomyces cerevisiae | 0.0341
RLIQPLPVQFLNM | Saccharomyces cerevisiae | 0.655
PSLAASFWRRVG | Saccharomyces cerevisiae | 0.69
RLIQPLPHQFLN | Saccharomyces cerevisiae | 0.645
YKILRQKMNHQN | Saccharomyces cerevisiae | 0.668
HDKRNHLIKLLN | Saccharomyces cerevisiae | 0.581
FSMRWTFRYWVNQ | Saccharomyces cerevisiae | 0.558
RRGAVGGWRLVG | Saccharomyces cerevisiae | 0.687
CTSCTYKFRTNN | Saccharomyces cerevisiae | 0.648
PSLAASFWRVDG | Saccharomyces cerevisiae | 0.7
